For each of the compounds below, state its inhibition.
- ASSAY TARGET: Maternal embryonic leucine zipper kinase (Homo sapiens);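 also: each value is the mean inhibition of MELK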
- RUN CONDITIONS: at 1 µM
One number for each entry, in %.

Field: example entries. Status: answers known.
1. CCn1c(-c2nonc2N)nc2c(C#CCN)ncc(OCCCN)c21 = 16
2. CCn1c(-c2nonc2N)nc2c(C#CC(C)(C)O)ncc(OCC3CCNCC3)c21 = 31.6
3. CCn1c(-c2nonc2N)nc2c(C#CC(C)(C)O)ncc(OC[C@@H]3CCCN3)c21 = 18.4

Note: attention shifts to another entry.
What is its inhibition for Maternal embryonic leucine zipper kinase (Homo sapiens)? Entry: COc1cccc(COc2cc(-n3cnc4ccccc43)sc2C(N)=O)c1 -8.42

* * *

For each of the compounds below, state its inhibition.
- ASSAY TARGET: Calcium/calmodulin-dependent protein kinase type IV (Homo sapiens) (UniProt Q16566);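 also: each value is a mean inhibition of CAMK4, part of the GSK PKIS kinase screening panel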
- Sequence (Q16566 whole entry): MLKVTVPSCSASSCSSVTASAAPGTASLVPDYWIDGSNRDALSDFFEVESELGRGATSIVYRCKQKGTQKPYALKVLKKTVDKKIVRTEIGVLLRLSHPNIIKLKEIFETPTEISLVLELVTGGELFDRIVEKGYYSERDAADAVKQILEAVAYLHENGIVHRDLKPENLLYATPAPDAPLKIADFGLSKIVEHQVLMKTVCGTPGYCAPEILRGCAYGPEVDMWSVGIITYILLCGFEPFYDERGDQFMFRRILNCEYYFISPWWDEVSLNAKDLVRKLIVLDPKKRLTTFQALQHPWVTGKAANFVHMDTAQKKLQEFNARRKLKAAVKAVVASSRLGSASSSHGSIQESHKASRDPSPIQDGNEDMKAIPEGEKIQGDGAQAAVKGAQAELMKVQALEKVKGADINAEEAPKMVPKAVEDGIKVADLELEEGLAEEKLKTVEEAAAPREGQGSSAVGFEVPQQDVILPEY
- RUN CONDITIONS: at 0.1 µM
One number for each entry, in %.

Field: example entries. Status: answers known.
1. NS(=O)(=O)c1ccc(-c2ccc3c(NC(=O)C4CC4)n[nH]c3c2)cc1 = 0.18
2. COc1cccc(-n2ncc3c(N/N=C/c4ccncc4)ncnc32)c1 = -0.17
3. Cc1cc(-c2ccco2)cc(C)c1/C=C/c1cncc(-c2nn[nH]n2)c1 = 1.45
4. CCn1c(-c2nonc2N)nc2c(C#CC(C)(C)O)ncc(OCC3CCNCC3)c21 = -2.07
5. COc1cccc(COc2cc(-n3cnc4ccccc43)sc2C(N)=O)c1 = 2.92
6. Fc1ccc(-c2ncn(C3CCNCC3)c2-c2ccnc(Oc3ccccc3)n2)cc1 = -1.82
7. CCn1c(-c2nonc2N)nc2c(C#CC(C)(C)O)nc(O[C@@H](CN)c3ccccc3)cc21 = -0.23
8. COc1cc2c(cc1Nc1nc(Nc3ccsc3C(N)=O)c3cc[nH]c3n1)N(C(=O)CN(C)C)CCC2 = 2.85
9. NS(=O)(=O)c1ccc(N/C=C2\C(=O)Nc3ccc4ncsc4c32)cc1 = -1.62
10. Nc1nonc1-c1nc2cnccc2n1C1CCCCC1 = 1.07

Value sought for every listed compound: inhibition.
1. NC(=O)c1sc(-n2cnc3cc(C(F)(F)F)ccc32)cc1OCc1ccccc1Br
2. CCn1c(-c2nonc2N)nc2c(C#CCN)ncc(OCCCN)c21
3. CCn1c(-c2nonc2N)nc2c(C#CC(C)(C)O)ncc(OC[C@@H]3CCCN3)c21

1: 2.89; 2: -6; 3: 0.16

* * *

- ASSAY TARGET: Protein kinase C alpha type (Homo sapiens);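 also: reported value is the mean inhibition, measured within the GSK PKIS screening panel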
- RUN CONDITIONS: at 1 µM
Rule: inhibition of 10% or more gives condition met; anything lower gives condition not met.

1. COc1cccc(COc2cc(-n3cnc4ccccc43)sc2C(N)=O)c1 = condition not met
2. CCn1c(-c2nonc2N)nc2c(C#CC(C)(C)O)ncc(OCC3CCNCC3)c21 = condition met
3. COc1cc(C=NNc2ncnc3c2cnn3Cc2ccccc2)ccc1O = condition not met

Textbook exercise: given the entry Fc1ccc(-c2ncn(C3CCNCC3)c2-c2ccnc(Oc3ccccc3)n2)cc1 , state whether its inhibition is greater than or equal to 10%. condition not met

Textbook exercise: given the entry CCn1c(-c2nonc2N)nc2c(C#CC(C)(C)O)ncc(OC[C@@H]3CCCN3)c21 , state whether its inhibition is greater than or equal to 10%. condition met

* * *

For each of the compounds below, state its inhibition.
- ASSAY TARGET: Ribosomal protein S6 kinase beta-1 (Homo sapiens) (UniProt P23443);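 also: reported value is the mean inhibition of p70S6K1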
- Sequence (P23443 whole entry, looked up): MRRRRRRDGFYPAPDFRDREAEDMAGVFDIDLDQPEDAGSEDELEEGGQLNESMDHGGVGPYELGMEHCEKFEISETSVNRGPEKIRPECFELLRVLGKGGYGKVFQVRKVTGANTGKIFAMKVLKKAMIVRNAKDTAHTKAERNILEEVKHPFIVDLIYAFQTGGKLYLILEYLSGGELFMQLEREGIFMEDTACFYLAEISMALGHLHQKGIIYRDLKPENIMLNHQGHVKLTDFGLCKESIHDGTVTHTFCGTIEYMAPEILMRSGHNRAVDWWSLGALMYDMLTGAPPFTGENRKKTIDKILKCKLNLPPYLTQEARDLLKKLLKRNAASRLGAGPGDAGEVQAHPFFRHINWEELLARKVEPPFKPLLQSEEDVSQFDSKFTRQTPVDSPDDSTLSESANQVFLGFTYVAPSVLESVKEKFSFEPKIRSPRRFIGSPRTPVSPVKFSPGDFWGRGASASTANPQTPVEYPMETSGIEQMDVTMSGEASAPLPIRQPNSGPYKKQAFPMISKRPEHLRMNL
- RUN CONDITIONS: at 0.1 µM
Answers are plain numbers, in %.

1. CCn1c(-c2nonc2N)nc2c(C#CC(C)(C)O)ncc(OCC3CCNCC3)c21 = 3.1

Value sought for every listed compound: inhibition.
1. CCn1c(-c2nonc2N)nc2c(C#CC(C)(C)O)nc(O[C@@H](CN)c3ccccc3)cc21
2. Cc1cc(-c2ccco2)cc(C)c1/C=C/c1cncc(-c2nn[nH]n2)c1
3. NC(=O)c1sc(-n2cnc3cc(C(F)(F)F)ccc32)cc1OCc1ccccc1Br
4. CCn1c(-c2nonc2N)nc2c(C#CCN)ncc(OCCCN)c21
5. COc1cc2c(cc1Nc1nc(Nc3ccsc3C(N)=O)c3cc[nH]c3n1)N(C(=O)CN(C)C)CCC2
6. COc1cccc(-n2ncc3c(N/N=C/c4ccncc4)ncnc32)c1

1: 13.1; 2: 0.97; 3: 1.25; 4: 7.3; 5: 1.15; 6: 2.67

Value sought for every listed compound: inhibition.
1. COc1cc(C=NNc2ncnc3c2cnn3Cc2ccccc2)ccc1O
2. NS(=O)(=O)c1ccc(-c2ccc3c(NC(=O)C4CC4)n[nH]c3c2)cc1
3. NS(=O)(=O)c1ccc(N/C=C2\C(=O)Nc3ccc4ncsc4c32)cc1

[-1.02, 0.95, 1.92]

* * *

- ASSAY TARGET: SRSF protein kinase 3 (Homo sapiens);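 also: values are mean inhibition of MSSK1 (alias of SRPK3)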
- RUN CONDITIONS: at 1 µM
ENDPOINT: inhibition (%)
Give bare numbers, in %.

Field: example entries. Status: answers known.
1. COc1cccc(-n2ncc3c(N/N=C/c4ccncc4)ncnc32)c1 = 1.8
2. Nc1nonc1-c1nc2cnccc2n1C1CCCCC1 = -1.01
3. CCn1c(-c2nonc2N)nc2c(C#CC(C)(C)O)ncc(OCC3CCNCC3)c21 = 3.41
4. NC(=O)c1sc(-n2cnc3cc(C(F)(F)F)ccc32)cc1OCc1ccccc1Br = 0.48
5. CCn1c(-c2nonc2N)nc2c(C#CC(C)(C)O)nc(O[C@@H](CN)c3ccccc3)cc21 = -2.07
6. Cc1cc(-c2ccco2)cc(C)c1/C=C/c1cncc(-c2nn[nH]n2)c1 = -1.53

Value sought for every listed molecule: inhibition.
1. NS(=O)(=O)c1ccc(N/C=C2\C(=O)Nc3ccc4ncsc4c32)cc1
2. CCn1c(-c2nonc2N)nc2c(C#CC(C)(C)O)ncc(OC[C@@H]3CCCN3)c21
3. CCn1c(-c2nonc2N)nc2c(C#CCN)ncc(OCCCN)c21

[0.72, -4.41, 3.44]

Sample COc1cccc(COc2cc(-n3cnc4ccccc43)sc2C(N)=O)c1 — what was its inhibition? -1.01

* * *

- ASSAY TARGET: NT-3 growth factor receptor (Homo sapiens) (UniProt Q16288);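 also: mean TRKC inhibition from the GSK PKIS kinase inhibitor set, with assays run by Nanosyn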
- Sequence (Q16288 32-839 limits assumed): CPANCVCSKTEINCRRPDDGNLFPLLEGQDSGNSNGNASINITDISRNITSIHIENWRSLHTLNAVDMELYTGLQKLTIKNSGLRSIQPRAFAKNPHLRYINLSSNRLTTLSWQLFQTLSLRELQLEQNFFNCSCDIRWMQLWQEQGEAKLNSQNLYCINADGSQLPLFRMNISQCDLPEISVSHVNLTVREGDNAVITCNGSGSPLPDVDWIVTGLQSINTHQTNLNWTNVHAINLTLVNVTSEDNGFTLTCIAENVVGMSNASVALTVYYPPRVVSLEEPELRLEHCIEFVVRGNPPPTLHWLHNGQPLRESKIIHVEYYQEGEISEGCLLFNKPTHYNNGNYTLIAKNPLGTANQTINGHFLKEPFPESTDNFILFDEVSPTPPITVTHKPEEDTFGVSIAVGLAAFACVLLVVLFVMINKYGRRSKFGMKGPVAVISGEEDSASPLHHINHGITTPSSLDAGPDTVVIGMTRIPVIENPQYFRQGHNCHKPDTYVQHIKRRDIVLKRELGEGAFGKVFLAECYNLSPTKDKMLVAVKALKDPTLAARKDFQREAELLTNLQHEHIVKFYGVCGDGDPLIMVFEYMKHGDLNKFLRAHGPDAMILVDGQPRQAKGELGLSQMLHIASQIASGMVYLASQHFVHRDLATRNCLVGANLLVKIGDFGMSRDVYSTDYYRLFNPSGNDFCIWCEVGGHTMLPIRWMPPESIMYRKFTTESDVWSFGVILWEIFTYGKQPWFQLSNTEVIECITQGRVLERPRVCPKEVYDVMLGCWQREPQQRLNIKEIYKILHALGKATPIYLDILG
- RUN CONDITIONS: at 1 µM
ENDPOINT: inhibition (%)
Answers are plain numbers, in %.

Field: example entries. Status: answers known.
1) COc1cccc(COc2cc(-n3cnc4ccccc43)sc2C(N)=O)c1 = -1.55
2) NS(=O)(=O)c1ccc(N/C=C2\C(=O)Nc3ccc4ncsc4c32)cc1 = 66.9
3) NS(=O)(=O)c1ccc(-c2ccc3c(NC(=O)C4CC4)n[nH]c3c2)cc1 = 9.04
4) CCn1c(-c2nonc2N)nc2c(C#CC(C)(C)O)nc(O[C@@H](CN)c3ccccc3)cc21 = 0.7
5) COc1cc(C=NNc2ncnc3c2cnn3Cc2ccccc2)ccc1O = 14
6) COc1cc2c(cc1Nc1nc(Nc3ccsc3C(N)=O)c3cc[nH]c3n1)N(C(=O)CN(C)C)CCC2 = 3.92

Note: attention shifts to another entry.
Sample CCn1c(-c2nonc2N)nc2c(C#CC(C)(C)O)ncc(OC[C@@H]3CCCN3)c21 — what was its inhibition? -0.37

* * *

- ASSAY TARGET: Calcium/calmodulin-dependent protein kinase type 1D (Homo sapiens) (UniProt Q8IU85);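 also: reported figure is the mean inhibition of CAMK1D, from the GSK PKIS screening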
- Sequence (Q8IU85 whole entry, looked up): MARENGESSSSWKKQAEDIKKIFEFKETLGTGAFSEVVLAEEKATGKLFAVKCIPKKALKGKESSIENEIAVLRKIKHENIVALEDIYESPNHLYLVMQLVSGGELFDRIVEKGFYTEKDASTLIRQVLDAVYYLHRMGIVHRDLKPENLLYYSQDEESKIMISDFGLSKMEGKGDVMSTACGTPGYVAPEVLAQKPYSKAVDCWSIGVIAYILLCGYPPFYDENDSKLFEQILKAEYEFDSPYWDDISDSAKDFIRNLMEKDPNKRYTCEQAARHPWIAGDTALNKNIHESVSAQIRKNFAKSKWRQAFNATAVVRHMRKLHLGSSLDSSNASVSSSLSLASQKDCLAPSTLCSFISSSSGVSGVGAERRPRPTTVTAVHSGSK
- RUN CONDITIONS: at 0.1 µM
For each of the molecules below, state its inhibition.

1. COc1cccc(COc2cc(-n3cnc4ccccc43)sc2C(N)=O)c1 = 0.91%
2. CCn1c(-c2nonc2N)nc2c(C#CCN)ncc(OCCCN)c21 = -0.21%
3. NS(=O)(=O)c1ccc(-c2ccc3c(NC(=O)C4CC4)n[nH]c3c2)cc1 = -1.85%
4. Cc1cc(-c2ccco2)cc(C)c1/C=C/c1cncc(-c2nn[nH]n2)c1 = 0.45%
5. CCn1c(-c2nonc2N)nc2c(C#CC(C)(C)O)nc(O[C@@H](CN)c3ccccc3)cc21 = 13.2%
6. COc1cccc(-n2ncc3c(N/N=C/c4ccncc4)ncnc32)c1 = 0.07%

Value sought for every listed molecule: inhibition.
1. Fc1ccc(-c2ncn(C3CCNCC3)c2-c2ccnc(Oc3ccccc3)n2)cc1
2. CCn1c(-c2nonc2N)nc2c(C#CC(C)(C)O)ncc(OCC3CCNCC3)c21

1: -1.05%; 2: -0.03%

Value sought for every listed molecule: inhibition.
1. NS(=O)(=O)c1ccc(N/C=C2\C(=O)Nc3ccc4ncsc4c32)cc1
2. NC(=O)c1sc(-n2cnc3cc(C(F)(F)F)ccc32)cc1OCc1ccccc1Br

["0.05%", "0.11%"]

* * *

- ASSAY TARGET: Serine/threonine-protein kinase B-raf (Homo sapiens) (UniProt P15056);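 also: mean percent inhibition of BRAF kinase activity, from the GSK PKIS kinase inhibitor screening set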
- Sequence (P15056 whole entry): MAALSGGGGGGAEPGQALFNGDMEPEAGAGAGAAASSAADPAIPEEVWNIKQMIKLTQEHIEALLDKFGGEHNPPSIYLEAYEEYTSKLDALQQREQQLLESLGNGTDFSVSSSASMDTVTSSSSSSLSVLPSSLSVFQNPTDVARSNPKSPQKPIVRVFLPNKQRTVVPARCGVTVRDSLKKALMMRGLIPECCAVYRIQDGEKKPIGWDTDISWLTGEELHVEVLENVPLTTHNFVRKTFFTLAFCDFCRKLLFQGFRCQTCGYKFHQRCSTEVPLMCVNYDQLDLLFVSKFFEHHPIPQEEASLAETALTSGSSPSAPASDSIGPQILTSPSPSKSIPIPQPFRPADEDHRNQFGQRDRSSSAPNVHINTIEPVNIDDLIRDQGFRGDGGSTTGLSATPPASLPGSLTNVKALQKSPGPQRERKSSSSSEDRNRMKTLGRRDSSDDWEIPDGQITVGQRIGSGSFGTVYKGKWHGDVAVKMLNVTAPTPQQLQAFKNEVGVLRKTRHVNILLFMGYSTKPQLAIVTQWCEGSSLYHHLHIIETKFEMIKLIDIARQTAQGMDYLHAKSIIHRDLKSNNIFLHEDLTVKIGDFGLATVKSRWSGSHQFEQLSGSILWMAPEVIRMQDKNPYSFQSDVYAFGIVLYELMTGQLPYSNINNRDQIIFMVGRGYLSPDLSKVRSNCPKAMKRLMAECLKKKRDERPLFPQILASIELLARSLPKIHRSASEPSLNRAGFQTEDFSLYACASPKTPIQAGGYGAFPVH
- RUN CONDITIONS: at 0.1 µM
For each of the compounds below, state its inhibition.
Give bare numbers, in %.

1) CCn1c(-c2nonc2N)nc2c(C#CC(C)(C)O)ncc(OC[C@@H]3CCCN3)c21 = 0.45
2) COc1cccc(COc2cc(-n3cnc4ccccc43)sc2C(N)=O)c1 = -0.39
3) COc1cccc(-n2ncc3c(N/N=C/c4ccncc4)ncnc32)c1 = 10.3
4) Nc1nonc1-c1nc2cnccc2n1C1CCCCC1 = -2.13
5) CCn1c(-c2nonc2N)nc2c(C#CC(C)(C)O)nc(O[C@@H](CN)c3ccccc3)cc21 = -0.9

Note: attention shifts to another entry.
Sample COc1cc(C=NNc2ncnc3c2cnn3Cc2ccccc2)ccc1O — what was its inhibition? -5.44
